Tested on: OVCAR-8 ovarian
PROCEDURE DETAILS: NCI-60 one-dose screen, 48 h (100 = growth as untreated, 0 = no growth, -100 = all killed)
EXPERIMENTAL PARAMETERS: 10 µM unless noted
The panel holds about 83,000 compounds, 20% with a hit somewhere; the sample as a whole holds those more often.
growth below 60% gives F; growth at or above it gives T.

O=C(Nc1ccc(OCc2nnc(-c3ccccc3)o2)c(F)c1)Nc1ccc(Cl)c(C(F)(F)F)c1 : F
Cc1ccc(C=C2C(Cl)=C(Cl)C(Cl)=C2Cl)cc1 : F
C[C@]12CC[C@@H]3c4ccc(O)c([N+](=O)[O-])c4CC[C@H]3[C@@H]1CC[C@@H]2NS(=O)(=O)c1ccc(C(F)(F)F)cc1 : F

Please check the record C[N+]1(CCC[N+]2(C)C[C@@H]3[C@H](C2)[C@@H]2C=C[C@H]3C2)CCOCC1 (stereo not given in full) and state if its growth is at or above 60%.
T

growth >= 60% for COc1ccc2c(c1)C(=O)/C(=C/c1ccc([N+](=O)[O-])s1)O2 ?
F

Record Cc1cc(C)c2c(c1)N1OC(C2)C[C@H]1/C=C/c1ccccc1 (stereo not given in full) ; criterion: growth no lower than 60%. Met?
T

Tell me whether growth is at least 60% here: COc1ccc2nccc(/C=C/c3ccnc4ccc(OC)cc34)c2c1
T

Could you verify whether the entry O=C1c2ccccc2C(=O)c2c1cccc2-n1nnc2ccccc21 shows growth of no less than 60%?
T

Item COc1cc(/C=C/C(=O)c2ccc(F)cc2)ccc1OCCCCCOc1cc2c(cc1OC)C(=O)N1CCCC1C=N2 (stereo not given) with growth of 60% or above?
F

====

Test system: IGROV1 ovarian
PROCEDURE DETAILS: NCI-60 one-dose screen, 48 h (100 = growth as untreated, 0 = no growth, -100 = all killed)
EXPERIMENTAL PARAMETERS: 10 µM unless noted
The panel holds about 83,000 compounds, 20% with a hit somewhere; the sample as a whole holds those more often.
Reported values of growth for individual entries
API: value field is a number in %; no unit string.

COc1ccc2nc(NC(=O)c3cc(-c4ccc(F)cc4)n4nc(-c5ccccc5)cc4n3)sc2c1 : 101
COc1cc2c(cc1OCCCOc1ccc(-c3cc4ccccc4c4ccccc34)cc1)N=C[C@@H]1CCCN1C2=O : -72.3
COc1ccc(C(=O)/C=C/c2c(Cl)nc3c(c(C)nn3-c3ccccc3)c2-c2ccc(Br)cc2)cc1 : 116
S=C1SCN(Cc2ccccc2)CN1Cc1ccco1 : 84.4
Cc1cc(C)n2nc(SCC(=O)Nc3sc4c(c3C(N)=O)CCC4)nc2n1 : -2.56

Field: next molecule
Request - read-out growth | tested on IGROV1 ovarian | molecule COc1cc(/C=C/C(=O)c2c(-c3ccc(F)cc3)nc3sc(C)nn23)cc(OC)c1OC
28.7

====

Test system: SNB-19 CNS
PROCEDURE DETAILS: NCI-60 one-dose screen, 48 h (100 = growth as untreated, 0 = no growth, -100 = all killed)
EXPERIMENTAL PARAMETERS: 10 µM unless noted
About 83,000 compounds went through this panel and 20% of them were active in at least one assay; those are over-represented in the sample as a whole.
Measured growth by item
Enter your answer as a number in %; do not include the unit.

Here are 5 molecules together with their reported answers.
Cc1cc2c(C#N)n3c(c2cc1C)C(=O)C(c1ccccc1)Oc1ccccc1-3 (stereo unspecified) : 35.9
O=C(NN(C(=O)c1ccccc1)c1cccs1)c1ccccc1 : 100
OC(c1cc(C(F)(F)F)nc2c(C(F)(F)F)cccc12)C1CCCCN1 (stereo unspecified) : 53.7
CN1CCN(CC(=O)Nc2nc3c(s2)Nc2cc(Cl)c(Cl)cc2NC3=O)CC1 : 104
Clc1ccc(CCC(Cn2ccnc2)Sc2c(Cl)cccc2Cl)cc1 (stereo unspecified) : 80.2

Fill in the blank: the reported growth of COc1ccc(-c2noc(N)c2-c2cc(OC)c3c(c2)OCO3)cc1 is ____.
53.5

====

Test system: SK-MEL-2 melanoma
PROCEDURE DETAILS: NCI-60 one-dose screen, 48 h
EXPERIMENTAL PARAMETERS: 10 µM unless noted
About 83,000 compounds went through this panel and 20% of them were active in at least one assay; those are over-represented in the sample as a whole. Active and inactive are the calls of the source. Rule for the calls: active = growth percent below 10; inactive = the rest.
Outcome field: choose from active, inactive

COc1cc2c(c(OC)c1OC)-c1ccc(NN(C(=O)c3ccccc3)C(=O)c3ccccc3)c(=O)cc1[C@@H](NC(C)=O)CC2 (tested in a mixture with another compound) : inactive
O=C1Nc2ccccc2C12Nc1cc(Cl)ccc1S2 (centres undefined) : inactive
O=c1[nH]c(Cl)nc2c1cnn2-c1ccccc1 : inactive
COc1cc(/C=C2\COc3ccc(O)cc3C2=O)cc(OC)c1 : inactive

Just curious, what result did CC[C@@H]1OC(=O)[C@H](C)[C@@H](O[C@H]2C[C@@](C)(OC)[C@@H](O)[C@H](C)O2)[C@H](C)[C@@H](O[C@@H]2O[C@H](C)C[C@H](N(C)C)[C@H]2O)[C@](C)(O)C[C@@H](C)[C@@H]2N[C@@H](COCCOC)O[C@H]([C@H]2C)[C@]1(C)O get here?
inactive

Assay result, entry Cn1cnc([N+](=O)[O-])c1S(=O)(=O)Oc1ccc(Cl)cc1 — outcome?
inactive

Per the assay record, what outcome was assigned to Nc1ccc2c(c1)/C(=N/O)c1cc([N+](=O)[O-])ccc1-2 ?
inactive

Record request — test call for CC(C)[C@]12O[C@H]1[C@@H]1O[C@]13[C@]1(O[C@H]1C[C@H]1C4=C(CC[C@@]13C)C(=O)OC4)[C@@H]2OC(=O)CN(C)C
active

====

Tested on: SF-539 CNS
PROCEDURE DETAILS: NCI-60 one-dose screen, 48 h
EXPERIMENTAL PARAMETERS: 10 µM unless noted
This is part of a sample that, as a whole, favours compounds with a hit. Of some 83,000 tested, about 20% had one in any assay. Activity calls are given as the source filed them. The calls were made as follows: active = growth percent below 10; inactive = the rest.
Result category, one only: active, inactive

O=C1N(C2CCCCC2)C(=O)N1C1CCCCC1 : inactive
COc1cc2c(c(OC)c1OC)CCc1cnoc1-2 : inactive
CCCCC1Nc2nc(SC)n(C)c(=O)c2CN(Cc2ccccc2)C1=O (stereo unspecified) : inactive
COc1ccc2c(c1)C(=O)c1c-2c(=O)n(CCCCCCC(=O)NO)c2ccccc12 : active

I would be grateful if you could indicate the recorded call for COc1ccc2c(c1)C(=O)/C(=C/c1ccc([N+](=O)[O-])s1)O2 .
active

Outcome logged for CC(=O)NCCSC(=O)C(=O)SCCNC(C)=O in this assay:
inactive

====

Test system: MALME-3M melanoma
PROCEDURE DETAILS: NCI-60 one-dose screen, 48 h (100 = growth as untreated, 0 = no growth, -100 = all killed)
EXPERIMENTAL PARAMETERS: 10 µM unless noted
Compounds without any hit were thinned out: in the full panel of roughly 83,000, 20% have a hit.
Catalogue of compounds with associated growth
Please give a number only; it is taken to be in %.

Known results for compounds:
CCCCCCCCCCCCCCCCCC1=NC(C)(C)CN1CCO : 11.8
N=C(N)/N=C(\CCc1nc2ccccc2[nH]1)c1nc2ccccc2[nH]1 : 96.9
Cc1cc(C(C)(C)c2cc(C)c(O)c(CN(C)C)c2)cc(CN(C)C)c1O : 57.7
O=c1ccn(C2CCCO2)c(=O)[nH]1 (stereo unspecified) : 116
O=C1NC(=O)/C(=C\c2ccccc2)C2=C1CCCC2 : 50.6
CCCCCCCC1(C)NC(=O)NC1=O (stereo unspecified) : 126

Entry Cc1ccc(C(O)C2=CC(=O)c3ccccc3C2=O)cc1 (stereo unspecified) has what growth?
107

Query (compound): COc1ccc(C(=O)Nc2nc(-c3ccc(Cl)cc3)cs2)cc1 ; field requested: growth
111

Returns the measured growth for the input compound. Input: CCn1c2c(c3ccccc31)SC1c3cccn3CCN1C2=S (stereo unspecified)
112

Consider the compound shown here: COC1=CC(c2ccc[nH]2)=N/C1=C\c1[nH]c(C)c(C(=O)CCC(=O)Oc2ccc3c(c2)CCC2C3CC[C@]3(C)C(=O)CC[C@@H]23)c1C (stereo partly specified) What is its recorded growth?
103

Please report the recorded growth for CN1CCN(CC(=O)Nc2nc3c(s2)Nc2cc(Cl)c(Cl)cc2NC3=O)CC1 .
107

====

System: COLO 205 colon
PROCEDURE DETAILS: NCI-60 one-dose screen, 48 h
EXPERIMENTAL PARAMETERS: 10 µM unless noted
The panel holds about 83,000 compounds, 20% with a hit somewhere; the sample as a whole holds those more often. The source made the active and inactive calls. How the source made its calls: active means growth percent below 10; inactive means the rest.
Form entry, call: pick from yes (active), no (inactive)

Solved cases (5 shown):
CC1=CSC2=NCCN12 : no
CCc1[nH]nc(-c2ccc(OC)cc2)c1-c1ccccc1OCCN(CC)CC : no
COc1ccc(C(=O)COc2cccc(/C=C3\Oc4ccc5ccccc5c4C3=O)c2)cc1 : no
O=[N+]([O-])c1ccc(N/N=C\c2ccccc2[N+](=O)[O-])nc1 : no
COc1ccc(CCN2CCCN3C2=Nc2ccccc2S3(=O)=O)cc1 : yes

// param item: Clc1ccc2nc(Cl)c3ccccc3c2c1 ; yields the recorded call
no

Each molecule tested received a call. Report the one for OCc1nnn(-c2ccccc2)c1CO .
no

Tell me the recorded outcome of this test for ClC1=C(Cl)C(=C2C(Cl)=C(Cl)C(Cl)=C2Cl)C(Cl)=C1Cl .
no

Short answer needed: outcome of this test for O=C1NCC(Nc2ccc(Br)cc2Cl)C(=O)N1 (stereo unspecified) ?
no

Entry Nc1ccc(S(=O)(=O)Nc2ncccn2)cc1 : call = ?
no

Record request — test call for Cc1cc(O)c2c(c1)C[C@H]1[C@@H]3CC[C@H]4CC(=O)CC[C@]4(C)[C@H]3CC(=O)[C@]21C
no
